Target: T1, human TIM-3 protein on human PBMC (human, UniProt Q8TDQ0 22-301)
T1 sequence: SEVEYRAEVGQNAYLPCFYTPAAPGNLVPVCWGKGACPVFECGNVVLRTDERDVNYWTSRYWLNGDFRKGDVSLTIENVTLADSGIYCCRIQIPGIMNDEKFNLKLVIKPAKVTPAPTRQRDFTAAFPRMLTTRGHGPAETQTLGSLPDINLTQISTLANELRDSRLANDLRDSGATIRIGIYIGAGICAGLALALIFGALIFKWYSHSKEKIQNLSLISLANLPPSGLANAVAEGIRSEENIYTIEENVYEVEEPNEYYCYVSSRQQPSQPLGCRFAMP
Assay: cell-based or functional assay
Metric: IFN-γ production, lymphocyte activation assay (donor Y), antibody 1 µg/ml, N = 2 (pg/mL)
A number alone suffices; assume pg/mL.

Exercise: If you can, please state the reported IFN-γ production, lymphocyte activation assay (donor Y), antibody 1 µg/ml, N = 2 value of fully human TIM-3 antibody 57F4E5 (antibody, human IgG4, V domains shown, also called antibody number 7) VH: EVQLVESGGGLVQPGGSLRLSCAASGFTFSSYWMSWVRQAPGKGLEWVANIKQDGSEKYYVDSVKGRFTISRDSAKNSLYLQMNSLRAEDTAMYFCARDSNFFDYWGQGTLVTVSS VL: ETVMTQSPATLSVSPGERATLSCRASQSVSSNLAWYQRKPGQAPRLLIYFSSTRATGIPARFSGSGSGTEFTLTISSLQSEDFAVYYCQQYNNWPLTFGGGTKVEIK .
Key: 3610

src = patent US20220033501A1
